Target: MAST1, Q9Y2H9
Sequence (Q9Y2H9 962-1065): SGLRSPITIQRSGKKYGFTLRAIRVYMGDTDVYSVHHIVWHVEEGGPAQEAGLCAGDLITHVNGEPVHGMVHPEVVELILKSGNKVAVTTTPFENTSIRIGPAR
Assay: holdup assay
Design: key: below the threshold = too weak to quantify, mostly under pKd 3.1 to 4
Settings: plain residues with an end cap or a label only (N-terminal biotin on a linker: ado-ado)
assay-endpoint: pKd

[[record]]
binder = "SQDPKKPSRV [CBY2, Q8NA61]"
assay_result = "below the threshold"

[[record]]
binder = "GDSSRKEYFI [GYPC, P04921]"
assay_result = "below the threshold"

[[record]]
binder = "HDDYFYHDEL [RCN2, Q14257]"
assay_result = 4.35

[[record]]
binder = "PSDSVGKDVF [EGLN1, Q9GZT9]"
assay_result = "below the threshold"

